# assay-summary: Pharmacokinetic analysis and plasma drug concentrations (LC-MS/MS)
# Format: in vivo, APOE*3Leiden.CETP mice
# condition-summary: APOE*3Leiden.CETP, mouse, plasma; single oral gavage, 5 mg/kg

{"columns": ["compound", "Tmax"],
 "data": [
  ["Cc1ccc(C(=O)Nc2ccc(CN3CCN(C)CC3)c(C(F)(F)F)c2)cc1C#Cc1cnc2cccnn12 [Ponatinib, ponatinib]", "8 h"]
]}

###

# assay-summary: Pharmacokinetic analysis and plasma drug concentrations (LC-MS/MS)
# Assay type: in vivo, APOE*3Leiden.CETP mice
# condition-summary: APOE*3Leiden.CETP, mouse, plasma; single oral gavage, 50 mg/kg

{"columns": ["structure-as-smiles", "Tmax (h)"],
 "data": [
  ["Cc1cn(-c2cc(NC(=O)c3ccc(C)c(Nc4nccc(-c5cccnc5)n4)c3)cc(C(F)(F)F)c2)cn1", 3.26]
]}
